System: Human papillomavirus type 1a E7 protein (residues 1-88)
assay_summary: HPV1a E7 small-molecule binders, primary screen, biochemical, small-molecule microarray, residues 1-88, 635 nm (AID 1129)
measurement_conditions: small-molecule microarray binding, fluorescence 635 nm; higher = more signal
For each record, write down the corresponding composite z-score.

Example compounds with recorded composite z-score:
CC(C)C[C@@H]1NC(=O)[C@@H]2C[C@H](C(=O)O)[C@H](c3cccc(OCCO)c3)N2C1=O : -0.312
COC(=O)[C@H](Cc1ccccc1)N[C@@H](/C=C/C1CC1)[C@H](O)Cc1ccccc1 : -0.236
O=C1O[C@@H](c2ccccc2)[C@@H](c2ccccc2)N2[C@@H](c3ccccc3OCCO)[C@]3(C(=O)Nc4ccc(C#CC5=CCCCC5)cc43)[C@@H](C(=O)N3CCCCCCC3)[C@H]12 : 1.32
C=CC[C@@]12N=C(c3ccc(OCCCO)cc3)O[C@@H]1c1ccccc1N(C)C2=O : 1.23
C=C[C@H](C)[C@@H](OC(=O)Nc1ccc(OC)cc1)c1ccc(O)c2ccccc12 : 0.0812

// for each compound in input: emit composite z-score
1. COC(=O)[C@@]1(Cc2ccc(OC)cc2)[C@H]2c3cc(C(=O)N4CCCC4)n(Cc4ccc(O)c(OC)c4)c3C[C@H]2CN1C(=O)c1ccccc1
2. CC(=O)NCCCC[C@@H]1NC(=O)[C@H]2C[C@@H](C(=O)NCCCCCCNC(=O)CS)[C@@H](c3ccc(O)cc3)N2C1=O

[0.926, 0.432]

====

assay_target: Pro-neuregulin-1, membrane-bound isoform (Homo sapiens)
assay_summary: NRG1 binders on small-molecule microarrays, primary screen, psychiatric disease protein project, biochemical, small-molecule microarray, fluorescence 635/667 (AID 1075);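 further: score combines 667 nm spot fluorescence with signal to noise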
measurement_conditions: NRG1 binding, 635 nm fluorescence, higher = more signal
For each record, write down the corresponding composite z-score.
Give bare numbers.

// for each compound in input: emit composite z-score
1. C=CCN1C(=O)[C@]2(O[C@H](CCn3cc([C@H](O)c4ccccc4)nn3)[C@@H]([Si](C)(C)c3ccc(OC)cc3)[C@@H]2C)c2cc(N3CCC3=O)ccc21
2. C=CCOC(=O)[C@H]1[C@@H]2C(=O)O[C@@H](c3ccccc3)[C@@H](c3ccccc3)N2[C@@H](c2ccc(OCCOC(=O)[C@H]3C[C@H]4C(=O)N[C@@H](CCCCNC(C)=O)C(=O)N4[C@H]3c3ccc(O)cc3)cc2)[C@]12C(=O)Nc1ccc(I)cc12
3. CCCC[C@@H]1C[C@H]1[C@@H](NC(=O)c1cccs1)c1ccc(-c2ccccc2)cc1

1.9
0.349
-0.0051

// for each compound in input: emit composite z-score
1. CCCCC(CC)C(O)C1C=CC2C(=O)N(Cc3ccccc3)C(=O)C2N1n1cnnc1 (stereo not drawn)
2. CCN(CC)c1ccc(N2CC=CC34O[C@@H]5C=CCCOC(=O)C5[C@H]3C(=O)N(CCCCCCO)[C@@H]4C2=O)cc1 (stereo partly drawn)
3. COC(=O)[C@@]1(Cc2ccc(OC)cc2)[C@@H]2C(=CC(=O)[C@H]2CC(=O)C(=O)N2CCCC2)CN1C(=O)c1ccccc1
4. CN1C(=O)C2C=CC(C(O)c3ccco3)N(Nc3ccccc3)C2C1=O (stereo not drawn)
5. Cc1ccc(S[C@]2(C(=O)O)CC(=O)N(C(C)C)[C@@H]2c2ccc(CO)cc2I)cc1

[-0.343, -0.173, 1.02, 1.51, 1.89]
